# Tested on: H1975 (established line with EGFR mutation)
# Measurement protocol: Spheroid formation in CSC medium
# Format: cell-based
# Stated conditions: Homo sapiens, NCI-H1975, 96 h, four days, read-out: IC50 value, number of spheroids 50-150 μM normalized to vehicle
Endpoint: IC50 (mM)
Number in mM, nothing else.

IN: State the recorded IC50 for this entry: `CC(=O)Nc1ccc(O)cc1`
OUT: 1.2

====

# System: UniProt P40763
# Sequence (P40763 whole entry, species assumed): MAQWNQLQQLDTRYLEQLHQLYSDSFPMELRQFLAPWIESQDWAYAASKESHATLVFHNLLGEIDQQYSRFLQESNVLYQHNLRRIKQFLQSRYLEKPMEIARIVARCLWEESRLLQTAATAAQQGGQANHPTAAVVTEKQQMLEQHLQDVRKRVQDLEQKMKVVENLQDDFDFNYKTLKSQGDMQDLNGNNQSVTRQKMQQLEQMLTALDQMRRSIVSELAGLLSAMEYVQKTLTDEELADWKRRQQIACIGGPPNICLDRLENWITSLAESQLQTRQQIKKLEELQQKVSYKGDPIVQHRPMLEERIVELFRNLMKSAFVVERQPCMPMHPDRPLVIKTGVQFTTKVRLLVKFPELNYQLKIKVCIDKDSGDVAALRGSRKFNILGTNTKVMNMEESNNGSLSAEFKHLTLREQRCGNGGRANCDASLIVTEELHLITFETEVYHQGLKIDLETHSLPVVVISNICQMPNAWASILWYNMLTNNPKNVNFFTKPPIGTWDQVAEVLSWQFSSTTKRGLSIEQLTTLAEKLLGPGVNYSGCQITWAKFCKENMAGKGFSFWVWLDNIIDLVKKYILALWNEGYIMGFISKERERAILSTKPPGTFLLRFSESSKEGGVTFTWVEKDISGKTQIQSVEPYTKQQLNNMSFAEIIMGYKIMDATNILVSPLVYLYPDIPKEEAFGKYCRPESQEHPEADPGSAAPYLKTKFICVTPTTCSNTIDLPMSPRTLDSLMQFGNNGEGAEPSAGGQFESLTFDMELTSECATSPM
# Measurement protocol: Spectrofluorimetry binding
# Stated conditions: STAT3 22 nM, 25° C., emission at 340 nm, quadratic binding equation; read-out: affinity of STAT3-AAP complex
Endpoint: Kd (µM)
Answer with a number only, understood to be in µM.

IN: Fill in the blank: the reported Kd of CC(=O)Nc1ccc(O)cc1 [AAP, acetaminophen] is ____.
OUT: 3.8
